For each entry below, report its pKd value.
Target: T1, soluble human FcRn (shFcRn) (human, UniProt P55899 24-297; P61769 21-119)
T1 construct: Biotinylated for the ELISA, amine-coupled to a CM5 chip for SPR; also called biotinylated shFcRn
T1 sequence (P55899 24-297 limits assumed, chain 1 of 2): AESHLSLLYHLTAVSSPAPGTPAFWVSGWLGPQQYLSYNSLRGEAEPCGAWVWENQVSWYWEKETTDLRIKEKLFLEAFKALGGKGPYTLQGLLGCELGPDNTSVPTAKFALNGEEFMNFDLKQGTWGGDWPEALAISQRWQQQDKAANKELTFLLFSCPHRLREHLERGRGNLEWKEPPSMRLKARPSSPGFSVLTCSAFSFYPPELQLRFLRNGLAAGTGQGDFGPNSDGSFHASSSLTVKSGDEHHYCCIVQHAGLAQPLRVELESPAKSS
T1 sequence (P61769 21-119 limits assumed, chain 2 of 2): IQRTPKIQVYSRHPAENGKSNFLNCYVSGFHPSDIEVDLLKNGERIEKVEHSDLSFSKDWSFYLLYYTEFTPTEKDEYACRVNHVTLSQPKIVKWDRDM
Test: SPR pH 6
Bridge positions count the residues as written; N and C are the ends. Square brackets hold non-standard residues; d marks the D form. Ends that are not written are not given here. Pen = CC(C)(S)[C@H](N)C(=O)O
The read-out pKd is expressed as -log10 of concentration in moles per litre.

IN: Which pKd reading was recorded for the binder QRF[Pen]TGHF[dF]GLYPCNGP-NH2 (disulfide 4-14; N-terminus assumed; SMILES CC(C)C[C@@H]1NC(=O)CNC(=O)[C@@H](Cc2ccccc2)NC(=O)[C@H](Cc2ccccc2)NC(=O)[C@H](Cc2c[nH]cn2)NC(=O)CNC(=O)[C@H]([C@@H](C)O)NC(=O)[C@@H](NC(=O)[C@H](Cc2ccccc2)NC(=O)[C@H](CCCNC(=N)N)NC(=O)[C@@H](N)CCC(N)=O)C(C)(C)SSC[C@@H](C(=O)N[C@@H](CC(N)=O)C(=O)NCC(=O)N2CCC[C@H]2C(N)=O)NC(=O)[C@@H]2CCCN2C(=O)[C@H](Cc2ccc(O)cc2)NC1=O) [Peptide No. 52] ?
OUT: 6.29

IN: Which pKd reading was recorded for the binder QRF[Pen]TGHFG[dY]LYPCNGP-NH2 (disulfide 4-14; N-terminus assumed; SMILES CC(C)C[C@@H]1NC(=O)[C@@H](Cc2ccc(O)cc2)NC(=O)CNC(=O)[C@H](Cc2ccccc2)NC(=O)[C@H](Cc2c[nH]cn2)NC(=O)CNC(=O)[C@H]([C@@H](C)O)NC(=O)[C@@H](NC(=O)[C@H](Cc2ccccc2)NC(=O)[C@H](CCCNC(=N)N)NC(=O)[C@@H](N)CCC(N)=O)C(C)(C)SSC[C@@H](C(=O)N[C@@H](CC(N)=O)C(=O)NCC(=O)N2CCC[C@H]2C(N)=O)NC(=O)[C@@H]2CCCN2C(=O)[C@H](Cc2ccc(O)cc2)NC1=O) [Peptide No. 45] ?
OUT: 5.82
